TGI: recorded values
system: 786-0 renal; assay: NCI tumour cell line growth inhibition, 48 h
Where a SMILES comes first, the peptide text is derived from it. The star is where a group is joined. Boc = CC(C)(C)OC(=O)*

Please fill in: TGI reported for Fc1cccc2nc(-c3ccccc3)cc(OCc3ccccc3)c12 = > 100 µM

So for CCN(CC)CC(C)Nc1ccc(C)c2sc3ccccc3c(=O)c12 (stereo not given) , the logged TGI turned out to be 11.2 µM

Documented TGI of CCC(=O)N1C/C(=C/c2ccc(OC)cc2)C(=O)/C(=C/c2ccc(OC)cc2)C1 : 3.72 µM

// CC(C)(C)C([O-])=C1C(=O)c2ccccc2C1=O.CC(C)(C)C([O-])=C1C(=O)c2ccccc2C1=O.CC[O-].CC[O-].[Ti+4] : TGI value = > 100 µM

Lab note: measured TGI of CSc1n[n+](C)cc(N)c1N was > 100 µM

Please fill in: TGI reported for O=C(Nc1ccc(Br)cc1)c1cc(Br)cc(Br)c1O = 29.7 µM

Lab note: NS(=O)(=O)c1ccc(/C=C/c2cccc(O)c2)cc1 gave TGI of > 100 µM

The compound O=C(CSc1nc2ccc(I)cc2c(=O)n1Cc1ccccc1)Nc1ccc(Br)cc1 showed TGI equal to > 100 µM

The recorded TGI for CN(C)CCOc1ccc(-c2c(Oc3ccc(Cl)cc3)c(=O)oc3ccccc23)cc1 is > 27.9 µM

Recorded result, CC(NC(=O)C(NC(=O)OC(C)(C)C)C(C)C)C(=O)NCC(=O)O (stereo not drawn) (Boc-Val-Ala-Gly-OH; configuration not given here) , TGI: > 100 µM

TGI in this record for CN(C)CCNC(=O)c1cccc(CO)c1[N+](=O)[O-] : > 100 µM

// TGI lookup, compound = CC(C)n1c(=O)c2nn3c(=O)n(C(C)C)c(=O)c3nn2c1=O , result: > 100 µM
